Values were extracted from paper PMC6435698.

# SUBJECT OF TEST: abPPO4 (mushroom tyrosinase) (Agaricus bisporus)
# Construct: glutathione-S-transferase (GST) (N, cleaved yes); made in house; host or cells: E. coli BL21(DE3)
# Sequence (C7FF05 1-379 limits assumed): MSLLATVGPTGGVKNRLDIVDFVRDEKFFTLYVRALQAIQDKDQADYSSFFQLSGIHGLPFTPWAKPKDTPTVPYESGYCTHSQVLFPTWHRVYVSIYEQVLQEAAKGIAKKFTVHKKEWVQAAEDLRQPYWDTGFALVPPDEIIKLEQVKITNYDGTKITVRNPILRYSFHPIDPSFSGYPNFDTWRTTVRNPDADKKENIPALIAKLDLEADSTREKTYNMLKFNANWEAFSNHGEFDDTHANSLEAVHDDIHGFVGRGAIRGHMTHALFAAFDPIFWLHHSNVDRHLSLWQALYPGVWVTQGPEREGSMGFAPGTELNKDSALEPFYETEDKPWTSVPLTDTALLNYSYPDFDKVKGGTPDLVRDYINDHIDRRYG
# TEST DETAILS: dopachrome assay, inhibition of abPPO4 diphenolase activity
# Type: biochemical
# CONDITION DETAILS: [a] from activity plot; 1 mM L-DOPA, 50 mM Na-citrate pH 6.8, 0–14 mM POT; read-out: Ki [mM], from activity plot
MEASURED ENDPOINT: Ki (mM)
Numeric answer only, unit mM assumed.

Enquiry: // returns reported Ki for input [Na+].[Na+].[O]=[W](=[O])([O-])[O-] [[WO4]^2−, Na2WO4, reference compound]
Return: 20
